target: UniProt Q9Y5N1; assay: Displacement of [125I]iodoproxyfan from human recombinant histamine H3 receptor expressed in human SK-N-MC cells
The following ranges of Ki define the classes used here: interval 1: < 30 nM; interval 2: ≥ 30 nM and < 600 nM; interval 3: ≥ 600 nM

Problem: Lab log: c1cc(OC[C@H]2CN(C3CCCC3)CCO2)ccc1CN1CCOCC1 — assign Ki category
Result: interval 2

----------
molecular target: Histamine H3 receptor (Homo sapiens); experiment: Displacement of [125I]iodoproxyfan from human recombinant histamine H3 receptor expressed in human SK-N-MC cells
Sequence (Q9Y5N1 whole entry): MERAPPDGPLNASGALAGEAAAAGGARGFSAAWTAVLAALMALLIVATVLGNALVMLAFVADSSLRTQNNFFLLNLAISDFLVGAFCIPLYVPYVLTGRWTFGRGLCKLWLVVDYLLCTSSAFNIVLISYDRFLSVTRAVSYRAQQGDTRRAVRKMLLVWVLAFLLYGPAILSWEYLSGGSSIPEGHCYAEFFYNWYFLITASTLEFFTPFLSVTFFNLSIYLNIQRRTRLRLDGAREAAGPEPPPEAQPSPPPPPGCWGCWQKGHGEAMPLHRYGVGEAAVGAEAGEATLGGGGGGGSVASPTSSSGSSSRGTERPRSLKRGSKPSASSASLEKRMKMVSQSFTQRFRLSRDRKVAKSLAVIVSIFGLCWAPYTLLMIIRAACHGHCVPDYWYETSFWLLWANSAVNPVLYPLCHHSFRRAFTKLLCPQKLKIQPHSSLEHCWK
# maps each entry to its pKi
Answer as the number alone; pKi is minus log10 of concentration in mol/L.

Problem: Consider the molecule shown here: c1cc(CN2CCOCC2)cc(OCC2CN(C3CC3)CCO2)c1 (stereo not drawn) What is its recorded pKi?
Result: 6.25

Problem: Please give the measured pKi for this molecule: CC(C)N1CCOC(COc2ccc(CN3CCOCC3)cc2)C1 (stereo not drawn)
Result: 7.31

***
Problem: Recorded pKi for c1cc(OCC2CN(C3CCCC3)CCO2)ccc1CN1CCOCC1 (stereo not drawn) , please?
Result: 8.44

Problem: pKi lookup needed for c1cc(OC[C@@H]2CN(C3CCCC3)CCO2)ccc1CN1CCOCC1 , thanks.
Result: 8.72

Problem: What does the data say about its pKi? Entry: CN1CCOC(COc2ccc(CN3CCOCC3)cc2)C1 (stereo not drawn)
Result: 5.68

Problem: What measured pKi goes with c1cc(CN2CCOCC2)cc(OCC2CN(C3CCC3)CCO2)c1 (stereo not drawn) ?
Result: 7.43
